assayRemarks: Determination of inhibitor concentration in mouse plasma after intraperitoneal and oral dosing
Format: in vivo
cond: female, IP, 25 mg/kg, vehicle PEG400:H2O pH 2.3 60:40
measuredProperty: AUC(0-t)

Could you share which AUC(0-t) value was measured for O=C(Nc1cccc(C(=O)c2ccc3c(/C=C/c4ccccn4)n[nH]c3c2)c1)c1ccncc1 ?
> 5870 ng·h/mL

----------
targetOfAssay: unphosphorylated VEGF-R2Δ50 (FLVK) (Homo sapiens, UniProt P35968, DEL940-989/E990V)
Sequence (P35968 with tags, fused parts or gaps DEL940-989/E990V limits assumed): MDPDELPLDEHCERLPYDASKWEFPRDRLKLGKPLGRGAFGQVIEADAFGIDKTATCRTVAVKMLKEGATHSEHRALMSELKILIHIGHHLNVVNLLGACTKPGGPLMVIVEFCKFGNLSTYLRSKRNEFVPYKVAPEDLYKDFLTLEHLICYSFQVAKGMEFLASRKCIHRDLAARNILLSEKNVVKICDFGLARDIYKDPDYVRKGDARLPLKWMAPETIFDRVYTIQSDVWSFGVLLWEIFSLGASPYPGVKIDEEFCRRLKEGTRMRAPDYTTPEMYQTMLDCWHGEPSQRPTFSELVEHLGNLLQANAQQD
assayRemarks: VEGF-R2 coupled spectrophotometric assay, unphosphorylated VEGF-R2Δ50 (FLVK)
cond: FLVK Ki, Table 1
Field 'label' (enum: 1.0 / 0.0). Set to 1.0 when Ki is strictly under 2 nM; else 0.0.

A record lists O=C(NC1CC1)c1ccccc1Sc1ccc2c(/C=C/c3ccccn3)n[nH]c2c1 [Example 33(e)] . Is its Ki below 2 nM?
1.0

Follow-up entry: CC(=O)Nc1cccc(N(C)c2ccc3c(/C=C/c4ccccc4)n[nH]c3c2)c1 [Example 12(a)]
1.0

Another compound to look at: C=CCOc1cc(-c2ccc3c(/C=C/c4ccc(OC)c(OC)c4)n[nH]c3c2)ccc1O [Example 1(c)]
1.0

Same lookup for C=C(c1ccccc1)c1ccc2c(/C=C/c3ccccc3)n[nH]c2c1 [Example 10, 6-(1-Phenyl-vinyl)-3-styryl-1H-indazole] , please.
0.0

What about this compound? O=C(Nc1cccc(C(=O)c2ccc3c(/C=C/c4ccccn4)n[nH]c3c2)c1)c1ccccc1 [Example 42(a)]
1.0

Similarly, COc1cc(-c2ccc3c(/C=C/c4ccc(OC)c(OC)c4)n[nH]c3c2)ccc1O [Example 1(a)] ?
1.0

Let us now turn to C(=C\c1n[nH]c2cc(Sc3ccccc3)ccc12)/c1ccccc1 [Example 8(c)]
0.0

Entry to check: Oc1ccc(Oc2ccc3c(/C=C/c4ccccc4)n[nH]c3c2)cc1 [Example 9(b)]
0.0

----------
Kindly supply the reported inhibition at 0.05 µM values for the records listed here.
targetOfAssay: unphosphorylated VEGF-R2Δ50 (FLVK) (Homo sapiens, UniProt P35968, DEL940-989/E990V)
assayRemarks: VEGF-R2 coupled spectrophotometric assay, unphosphorylated VEGF-R2Δ50 (FLVK)
cond: read-out: FLVK % inhibition
Just the number please, in %, no unit attached.

Sample CCCn1nc(C)cc1C(=O)Nc1cc(C(=O)c2ccc3c(/C=C/c4ccccn4)n[nH]c3c2)ccc1C — what was its inhibition at 0.05 µM?
57

Do the same for CNC(=O)c1ccccc1Nc1ccc2c(/C=C/c3ccccn3)n[nH]c2c1 please
53

// query: Cc1cc(C(=O)Nc2cccc(Oc3ccc4c(/C=C/c5ccccn5)n[nH]c4c3)c2)n(C)n1
100

Please do the same for NNC(=O)c1ccccc1Sc1ccc2c(/C=C/c3ccccn3)n[nH]c2c1 as well.
44

What do you get for CCn1nc(C)cc1C(=O)Nc1cc(Oc2ccc3c(/C=C/c4ncc[nH]4)n[nH]c3c2)ccc1C ?
98

Request: Nc1ccc(CNC(=O)c2ccccc2Sc2ccc3c(/C=C/c4ccccn4)n[nH]c3c2)cc1
90

Entry to check: O=C(NOCc1ccccc1)c1ccccc1Sc1ccc2c(/C=C/c3ccccn3)n[nH]c2c1
100

Now consider C=CCONC(=O)c1ccccc1Sc1ccc2c(/C=C/c3ccccn3)n[nH]c2c1 and answer again.
99

Where do these numbers come from? They come from patent US6534524B1.
